measured on: MAT2A (Homo sapiens, UniProt P31153)
Sequence (P31153 whole entry, species assumed): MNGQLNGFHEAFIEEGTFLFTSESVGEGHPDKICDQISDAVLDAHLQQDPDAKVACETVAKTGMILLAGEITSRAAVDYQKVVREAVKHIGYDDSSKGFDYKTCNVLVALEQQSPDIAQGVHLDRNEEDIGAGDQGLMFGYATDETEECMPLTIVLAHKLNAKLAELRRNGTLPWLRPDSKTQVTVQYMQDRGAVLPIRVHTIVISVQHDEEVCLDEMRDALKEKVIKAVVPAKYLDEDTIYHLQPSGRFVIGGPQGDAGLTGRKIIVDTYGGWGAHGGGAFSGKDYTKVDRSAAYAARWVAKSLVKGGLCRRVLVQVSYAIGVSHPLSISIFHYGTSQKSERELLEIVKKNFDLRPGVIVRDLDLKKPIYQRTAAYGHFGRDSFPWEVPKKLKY
pIC50: −log10 of the molar value.
What pIC50 was measured for each of the following?

Worked set:
C#CC1(Nc2nc(=O)n(-c3cccnc3)c3cc(C(F)(F)F)cnc23)CC1 [Example 56]	< 6.00
C#CC(C)Nc1nc(=O)n(-c2cccnc2)c2cc(C(F)(F)F)cc(OC)c12 (centres unmarked) [Example 35]	> 7.30
C#CCNc1nc(=O)n(-c2cccnc2C)c2cc(Cl)ccc12 [Example 15]	> 7.30
C#CC1(Nc2nc(=O)n(-c3cccnc3)c3cc(C(F)(F)F)ccc23)CC1 [Example 67]	> 7.30

Lookup: pIC50 lookup needed for C#CC(C)Nc1nc(=O)n(-c2cccnc2)c2cc(C(F)(F)F)ccc12 (centres unmarked) [Example 64] , thanks.
Found: > 7.30
